Source of measurements: ChEMBL document CHEMBL2163297

Assay: Selectivity ratio of IC50 for PI3Kbeta to IC50 for PI3Kdelta
assay metric: Ratio IC50

# smiles str, Ratio IC50
measured = [
    ("CC(C)(C(N)=O)N1CCN(Cc2cc3nc(-c4cc(C#N)cc5[nH]ccc45)nc(N4CCOCC4)c3s2)CC1", 275),
    ("Cc1cc2c(-c3nc(N4CCOCC4)c4sc(CN5CCN(C(C)(C)C(N)=O)CC5)cc4n3)cccc2[nH]1", 101),
    ("CC(C)(C(N)=O)N1CCN(Cc2cc3nc(-c4ccnc5[nH]ccc45)nc(N4CCOCC4)c3s2)CC1", 103),
]

1: CC(C)(C(N)=O)N1CCN(Cc2cc3nc(-c4c(F)ccc5[nH]ccc45)nc(N4CCOCC4)c3s2)CC1
2: Cc1nc2ccccc2n1-c1nc(N2CCOCC2)c2sc(CN3CCC(N(C)C)CC3)cc2n1
3: CC(C)(C(N)=O)N1CCN(Cc2cc3nc(-c4cccc5[nH]ncc45)nc(N4CCOCC4)c3s2)CC1
4: CCc1nc2ccccc2n1-c1nc(N2CCOCC2)c2sc(CN3CCN(C4COC4)CC3(C)C)cc2n1
5: CCc1nc2ccccc2n1-c1nc(N2CCOCC2)c2sc(CN3CCN(S(C)(=O)=O)CC3)cc2n1
QUERY: # sort list by recorded Ratio IC50, greatest to least Would you mind listing the labels in the order requested?
RESULT: 4, 2, 1, 3, 5

====

Biological target: Cytochrome P450 3A4 (Homo sapiens)
Sequence (P08684 whole entry): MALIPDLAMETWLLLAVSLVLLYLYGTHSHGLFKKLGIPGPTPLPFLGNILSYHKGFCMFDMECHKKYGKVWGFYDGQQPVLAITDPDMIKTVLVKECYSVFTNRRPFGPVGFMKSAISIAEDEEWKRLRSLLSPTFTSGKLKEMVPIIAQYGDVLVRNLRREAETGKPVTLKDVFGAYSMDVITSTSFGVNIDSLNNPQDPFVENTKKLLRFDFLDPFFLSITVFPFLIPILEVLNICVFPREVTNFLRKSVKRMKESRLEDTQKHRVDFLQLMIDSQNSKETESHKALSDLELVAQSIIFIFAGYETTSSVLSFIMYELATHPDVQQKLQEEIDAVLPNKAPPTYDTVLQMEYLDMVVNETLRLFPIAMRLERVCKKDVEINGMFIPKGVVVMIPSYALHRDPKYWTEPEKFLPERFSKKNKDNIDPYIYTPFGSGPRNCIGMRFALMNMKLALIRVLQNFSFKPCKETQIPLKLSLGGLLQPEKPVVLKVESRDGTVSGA
Assay: Time dependent inhibition of CYP3A4 in human liver microsomes preincubated for 30 mins
Assay type: ADME, Microsome
pIC50: −log10 of the molar value.
assay metric: pIC50

Previously resolved entries follow.
# smiles str, pIC50
data = [
    ("Fc1ccc2[nH]ccc2c1-c1nc(N2CCOCC2)c2sc(CN3CCN4CCOC[C@H]4C3)cc2n1", 5.15),
    ("CC(C)(C(N)=O)N1CCN(Cc2cc3nc(-c4cc(F)cc5[nH]ccc45)nc(N4CCOCC4)c3s2)CC1", 6.29),
]

I: CC(C)(C(N)=O)N1CCN(Cc2cc3nc(-c4c(F)ccc5[nH]ccc45)nc(N4CCOCC4)c3s2)CC1
II: CN(C)C1CCN(Cc2cc3nc(-c4c(F)ccc5[nH]ccc45)nc(N4CCOCC4)c3s2)CC1
III: CC(C)(C(N)=O)N1CCN(Cc2cc3nc(-c4c(F)cc(F)c5[nH]ccc45)nc(N4CCOCC4)c3s2)CC1
QUERY: Rank ascending by pIC50. Would you mind listing the labels in the order requested?
RESULT: II, I, III
(II: 5.04, I: 5.82, III: 6.22)

====

Target: Phosphatidylinositol 4,5-bisphosphate 3-kinase catalytic subunit delta isoform (Homo sapiens)
Sequence (O00329 whole entry): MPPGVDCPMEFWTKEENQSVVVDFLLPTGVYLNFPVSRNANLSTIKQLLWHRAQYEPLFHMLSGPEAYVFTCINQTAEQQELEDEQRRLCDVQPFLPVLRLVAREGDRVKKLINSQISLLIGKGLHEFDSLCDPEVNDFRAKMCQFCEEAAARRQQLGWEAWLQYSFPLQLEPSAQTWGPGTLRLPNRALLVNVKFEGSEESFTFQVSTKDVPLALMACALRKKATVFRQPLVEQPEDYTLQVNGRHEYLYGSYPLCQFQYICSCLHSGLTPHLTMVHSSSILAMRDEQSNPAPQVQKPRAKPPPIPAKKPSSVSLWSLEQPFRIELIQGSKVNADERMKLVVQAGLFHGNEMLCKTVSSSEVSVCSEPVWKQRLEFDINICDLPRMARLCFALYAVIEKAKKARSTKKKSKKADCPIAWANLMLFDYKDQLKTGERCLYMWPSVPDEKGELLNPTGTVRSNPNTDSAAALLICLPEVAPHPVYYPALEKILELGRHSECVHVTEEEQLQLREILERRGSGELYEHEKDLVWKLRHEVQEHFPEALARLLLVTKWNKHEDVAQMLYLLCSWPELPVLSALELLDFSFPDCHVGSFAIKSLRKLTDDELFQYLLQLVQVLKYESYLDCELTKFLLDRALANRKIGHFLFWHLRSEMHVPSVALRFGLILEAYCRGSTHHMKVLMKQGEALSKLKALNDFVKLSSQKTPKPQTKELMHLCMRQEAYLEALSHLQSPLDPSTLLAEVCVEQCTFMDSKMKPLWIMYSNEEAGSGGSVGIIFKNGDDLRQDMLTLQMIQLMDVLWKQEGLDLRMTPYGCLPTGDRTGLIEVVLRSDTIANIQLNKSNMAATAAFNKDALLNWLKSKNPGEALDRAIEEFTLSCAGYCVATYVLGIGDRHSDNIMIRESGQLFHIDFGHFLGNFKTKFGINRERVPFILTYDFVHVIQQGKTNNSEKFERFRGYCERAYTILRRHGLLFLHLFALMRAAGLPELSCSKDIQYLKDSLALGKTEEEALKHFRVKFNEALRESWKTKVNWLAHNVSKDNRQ
pIC50: −log10 of the molar value.
assay metric: pIC50

# smiles str, pIC50
data = [
    ("CC(C)(C(N)=O)N1CCN(Cc2cc3nc(-c4cccc5[nH]ncc45)nc(N4CCOCC4)c3s2)CC1", 8.51),
]

P: Cc1ncc2ccccc2c1-c1nc(N2CCOCC2)c2sc(CN3CCC(N(C)C)CC3)cc2n1
Q: CC(C)(C(N)=O)N1CCN(Cc2cc3nc(-c4nccc5[nH]ccc45)nc(N4CCOCC4)c3s2)CC1
R: CN(C)C1CCN(Cc2cc3nc(-n4ncc5ccccc54)nc(N4CCOCC4)c3s2)CC1
S: Cc1cc2c(-c3nc(N4CCOCC4)c4sc(CN5CCN(C(C)(C)C(N)=O)CC5)cc4n3)cccc2[nH]1
QUERY: Rank ascending by pIC50. Would you mind listing the labels in the order requested?
RESULT: P, R, Q, S
